# inhibition at 1 µM listing for each entry below
# targetUnderTest: human GnRH receptor (Homo sapiens, UniProt P30968)
# Construct: expressed in transfected cells; host or cells: HEK 293 (hGnRH-R/293, from Dr. Stuart Sealfon)
# assayNotes: Radioligand binding, 125I-GnRH-A displacement, membranes of HEK 293 cells with human GnRH receptor
# conditionSet: 1 uM; read-out: % Inhib. @ 1 uM hGnRH
measuredQuantity: inhibition at 1 µM (%)

compound: Cc1cc2c(cc1Cc1ccc(C(=O)NC(CCO)c3ccccc3)o1)C(C)(C)CCC2(C)C (centres unmarked)
unitSymbol: %
readoutValue: 17

compound: Cc1cc2c(cc1Cc1ccc(C(=O)NC(C)c3ccc([N+](=O)[O-])cc3)o1)C(C)(C)CCC2(C)C (centres unmarked) [drawing 1238]
unitSymbol: %
readoutValue: 41

compound: Cc1cc2c(cc1Cc1ccc(C(=O)NCc3ccc(F)cc3)o1)C(C)(C)CCC2(C)C [drawing 1135]
unitSymbol: %
readoutValue: 69

compound: CCOC(=O)N1CCC(NC(=O)c2ccc(Cc3cc4c(cc3C)C(C)(C)CCC4(C)C)o2)CC1
unitSymbol: %
readoutValue: 15

compound: Cc1cc2c(cc1Cc1ccc(C(=O)NCCCCNc3nccc(NCC4CCCO4)n3)o1)C(C)(C)CCC2(C)C (centres unmarked) [drawing 1047]
unitSymbol: %
readoutValue: 27

compound: Cc1cc2c(cc1Cc1ccc(C(=O)NCc3ccccc3OC(F)(F)F)o1)C(C)(C)CCC2(C)C
unitSymbol: %
readoutValue: 1

compound: Cc1cc2c(cc1Cc1ccc(C(=O)NC(C)C(O)c3ccccc3)o1)C(C)(C)CCC2(C)C (centres unmarked)
unitSymbol: %
readoutValue: 12

compound: Cc1cc2c(cc1Cc1ccc(C(=O)NC(C)(C)c3ccccc3)o1)C(C)(C)CCC2(C)C
unitSymbol: %
readoutValue: 28

* * *

# targetUnderTest: mouse GnRH receptor (Mus musculus, UniProt Q01776)
# Construct: expressed in transfected cells; host or cells: 293 cells
# Sequence (Q01776 whole entry): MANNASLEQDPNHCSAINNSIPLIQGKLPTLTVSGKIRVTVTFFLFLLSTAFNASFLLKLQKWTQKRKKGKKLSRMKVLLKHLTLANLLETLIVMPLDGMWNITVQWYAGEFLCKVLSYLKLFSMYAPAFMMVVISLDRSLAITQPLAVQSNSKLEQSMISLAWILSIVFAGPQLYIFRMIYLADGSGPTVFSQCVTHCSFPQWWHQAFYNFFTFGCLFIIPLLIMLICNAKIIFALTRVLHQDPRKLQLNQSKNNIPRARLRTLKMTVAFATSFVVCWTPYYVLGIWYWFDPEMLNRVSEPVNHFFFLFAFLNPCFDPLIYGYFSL
# assayNotes: Radioligand binding, 125I-GnRH-A, 293 cells expressing mouse GnRH receptors
# conditionSet: 1 h, substrate remaining; 10 uM compound; closer to zero = closer to 100% inhibition; read-out: S%R 10 uM mGnRHR
# remaining activity at 10 µM listing for each entry below

compound: Cc1cc2c(cc1Cc1ccc(C(=O)NC(C)CO)o1)C(C)(C)CCC2(C)C (centres unmarked)
unitSymbol: %
remaining activity at 10 µM: 19
//
compound: Cc1cc2c(cc1Cc1ccc(C(=O)NCc3ccc(C(=O)O)cc3)o1)C(C)(C)CCC2(C)C
unitSymbol: %
remaining activity at 10 µM: 2
//
compound: Cc1cc2c(cc1Cc1ccc(C(=O)NCCCCCO)o1)C(C)(C)CCC2(C)C
unitSymbol: %
remaining activity at 10 µM: 2
//
compound: Cc1cc2c(cc1Cc1ccc(C(=O)NCCNCCN3CCOCC3)o1)C(C)(C)CCC2(C)C
unitSymbol: %
remaining activity at 10 µM: 32
//
compound: Cc1cc2c(cc1Cc1ccc(C(=O)N3CCC(O)(c4ccc(Br)cc4)CC3)o1)C(C)(C)CCC2(C)C
unitSymbol: %
remaining activity at 10 µM: 52
//
compound: Cc1cc2c(cc1Cc1ccc(C(=O)NC3CCS(=O)(=O)C3)o1)C(C)(C)CCC2(C)C (centres unmarked)
unitSymbol: %
remaining activity at 10 µM: 10
//
compound: CCN(Cc1ccc(C)cc1)C(=O)c1ccc(Cc2cc3c(cc2C)C(C)(C)CCC3(C)C)o1
unitSymbol: %
remaining activity at 10 µM: 22
//
compound: Cc1cc2c(cc1Cc1ccc(C(=O)NC(C)CCCC(C)C)o1)C(C)(C)CCC2(C)C (centres unmarked)
unitSymbol: %
remaining activity at 10 µM: 29

* * *

# targetUnderTest: human GnRH receptor (Homo sapiens, UniProt P30968)
# Construct: expressed in transfected cells; host or cells: HEK 293 (hGnRH-R/293, from Dr. Stuart Sealfon)
# Sequence (P30968 1-328): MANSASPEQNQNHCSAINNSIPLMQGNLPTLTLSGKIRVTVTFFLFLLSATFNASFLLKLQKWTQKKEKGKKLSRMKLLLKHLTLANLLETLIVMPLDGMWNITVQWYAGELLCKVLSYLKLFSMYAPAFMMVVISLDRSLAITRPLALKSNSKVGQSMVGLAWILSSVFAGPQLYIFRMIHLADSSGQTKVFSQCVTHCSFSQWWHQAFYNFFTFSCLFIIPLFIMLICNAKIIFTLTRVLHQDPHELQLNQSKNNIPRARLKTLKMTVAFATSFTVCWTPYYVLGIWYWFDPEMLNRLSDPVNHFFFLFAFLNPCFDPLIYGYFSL
# assayNotes: Radioligand binding, 125I-GnRH-A displacement, membranes of HEK 293 cells with human GnRH receptor
# conditionSet: read-out: hGnRH IC50
pIC50: −log10 of the molar value.
# binarize pIC50: threshold 6 inclusive, high side TRUE, low side FALSE

compound: COc1cc(OC)c(NC(=O)c2ccc(Cc3c(OC)ccc4c3CCCC4=O)o2)c(OC)c1
categoryLabel: FALSE

compound: COc1ccc(OC)c(Cc2ccc(C(=O)Nc3c(OC)cc(OC)cc3OC)o2)c1
categoryLabel: FALSE

compound: COc1cc(OC)c(OC)cc1Cc1ccc(C(=O)Nc2c(OC)cccc2OC)o1
categoryLabel: FALSE

compound: Cc1cc2c(cc1Cc1ccc(C(=O)N3CCN(CCN(Cc4ccccn4)C(=O)c4ccc(Cc5cc6c(cc5C)C(C)(C)CCC6(C)C)o4)CC3)o1)C(C)(C)CCC2(C)C
categoryLabel: FALSE

compound: COc1cc(OC)c(NC(=O)c2ccc(Cc3c(C)ccc4c3OCCC4(C)C)o2)c(OC)c1
categoryLabel: TRUE

compound: COc1cc(OC)c(NC(=O)c2ccc(C(=O)c3cc4c(cc3C)C(C)(C)CCC4(C)C)o2)c(OC)c1
categoryLabel: TRUE

compound: Cc1cc2c(cc1Cc1ccc(C(=O)NCC(=O)O)o1)C(C)(C)CCC2(C)C
categoryLabel: FALSE

compound: COc1cc(OC)c(NC(=O)c2ccc(Cc3cc(-c4ccccc4)c(C)cc3C)o2)c(OC)c1
categoryLabel: TRUE

compound: CCOC(=O)[C@H]1CC[C@H](CNC(=O)c2ccc(Cc3cc4c(cc3C)C(C)(C)CCC4(C)C)o2)CC1
categoryLabel: TRUE

compound: Cc1cc2c(cc1Cc1ccc(C(=O)Nc3ccc4[nH]ccc4c3)o1)C(C)(C)CCC2(C)C
categoryLabel: TRUE

compound: Cc1cc2c(cc1Cc1ccc(C(=O)NC[C@H]3CC[C@H](CNC(=N)N)CC3)o1)C(C)(C)CCC2(C)C
categoryLabel: TRUE

compound: Cc1cc2c(cc1Cc1ccc(C(=O)NCc3ccc(CN(C)C)cc3)o1)C(C)(C)CCC2(C)C
categoryLabel: TRUE

compound: Cc1cc2c(cc1Cc1ccc(C(=O)NCC3CCCC(CN)C3)o1)C(C)(C)CCC2(C)C (stereo not drawn)
categoryLabel: TRUE

compound: Cc1cc2c(cc1Cc1ccc(C(=O)NC[C@H]3CC[C@@H](CNC(=N)N)CC3)o1)C(C)(C)CCC2(C)C
categoryLabel: TRUE

compound: Cc1cc2c(cc1Cc1ccc(C(=O)Nc3ccc4[nH]ncc4c3)o1)C(C)(C)CCC2(C)C
categoryLabel: TRUE

compound: COc1cc(C)c(Cc2ccc(C(=O)NCc3cnc(C)cn3)o2)cc1OC
categoryLabel: FALSE

compound: CCCOCCNC(=O)c1ccc(Cc2cc3c(cc2C)C(C)(C)CCC3(C)C)o1
categoryLabel: TRUE

compound: Cc1cc2c(cc1Cc1ccc(C(=O)N3C[C@@H]4CCCC[C@@H]4CC3C(=O)NC(C)(C)C)o1)C(C)(C)CCC2(C)C (stereo partly drawn)
categoryLabel: FALSE

compound: Cc1cc2c(cc1Cc1ccc(C(=O)Nc3ncc([N+](=O)[O-])cn3)o1)C(C)(C)CCC2(C)C
categoryLabel: FALSE

compound: Cc1cc2c(cc1Cc1ccc(C(=O)NCCC3OCCO3)o1)C(C)(C)CCC2(C)C
categoryLabel: TRUE

compound: Cc1cc2c(cc1Cc1ccc(C(=O)Nc3cncc(COC(=O)c4ccc(Cc5cc6c(cc5C)C(C)(C)CCC6(C)C)o4)c3)o1)C(C)(C)CCC2(C)C
categoryLabel: FALSE

compound: COc1cc(NC(=O)c2ccc(Cc3cc4c(cc3C)C(C)(C)CCC4(C)C)o2)cc(OC)c1
categoryLabel: TRUE

compound: COc1cc(NC(=O)c2ccc(Cc3cc4c(cc3C)C(C)(C)CCC4(C)C)o2)cc(OC)c1OC
categoryLabel: TRUE

compound: Cc1cc(C)nc(NS(=O)(=O)c2ccc(NC(=O)c3ccc(Cc4cc5c(cc4C)C(C)(C)CCC5(C)C)o3)cc2)n1
categoryLabel: FALSE

compound: Cc1cc2c(cc1Cc1ccc(C(=O)NCc3cccc4ccccc34)o1)C(C)(C)CCC2(C)C
categoryLabel: TRUE

compound: CNC(=O)c1ccc(Cc2cc3c(cc2C)C(C)(C)CCC3(C)C)o1
categoryLabel: FALSE

compound: COc1cc(OC)c(NC(=O)c2ccc(Cc3cc(C(=O)C(C)(C)C)c(OC)cc3OC)o2)c(OC)c1
categoryLabel: TRUE
